Examples of binders with documented kon follow.
- study target: T1, Human complement Factor D, mature (human, UniProt P00746 27-253)
- T1 construct: In the TR-FRET assay the factor D was bought from Complement Technology; In the hemolysis assay it was the factor D of C1q-depleted human serum; also called human Factor D; hFD
- T1 sequence (P00746 27-253): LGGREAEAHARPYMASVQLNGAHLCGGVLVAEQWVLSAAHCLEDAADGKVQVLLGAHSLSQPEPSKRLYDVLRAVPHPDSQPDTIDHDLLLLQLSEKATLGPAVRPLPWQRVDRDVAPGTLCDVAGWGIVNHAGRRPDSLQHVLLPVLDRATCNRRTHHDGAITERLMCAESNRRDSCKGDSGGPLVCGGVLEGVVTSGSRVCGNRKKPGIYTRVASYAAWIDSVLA
- assay text: SPR (Biacore T200): Fab captured with anti-huFab kit, human Factor D injected, 25 C, 1:1 model;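 also: sensorgrams were corrected by subtracting a blank injection of running buffer before fitting kinetic and affinity constants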
Numeric answer only, unit M⁻¹ s⁻¹ assumed.

Solved entries:
binder: hu20D12.v2.9 Fab (Fab, V domains shown) VH: EVQLVQSGAEVKKPGASVKVSCKASGYTFTSYYMYWVRQAPGQGLEWIGWINPTSGGTNFNEKFKSRATLTVDTSTSTAYLELSSLRSEDTAVYYCAREGGFAYWGQGTLVTVSS VL: DIQMTQSPSSLSASVGDRVTITCKASQNVDTDVAWFQQKPGKAPKGLIYSASSRYSGVPSRFSGSGSGTDFTLTISSLQPEDFATYYCQQYNNYPLTFGQGTKVEIKR
recorded result: 3.4e+07
--
binder: hu20D12.v2.0 Fab (Fab, V domains shown, Fab expressed in E. coli; also called Hu20D12.v1.N54S; hu20D12.v1.N54S) VH: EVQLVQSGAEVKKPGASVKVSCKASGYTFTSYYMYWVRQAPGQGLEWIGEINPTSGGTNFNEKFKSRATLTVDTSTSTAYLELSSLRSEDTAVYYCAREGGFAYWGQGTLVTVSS VL: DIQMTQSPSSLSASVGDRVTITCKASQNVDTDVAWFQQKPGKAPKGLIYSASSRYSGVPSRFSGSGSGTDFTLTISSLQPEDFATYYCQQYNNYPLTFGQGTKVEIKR
recorded result: 1.4e+07
--
binder: hu20D12.v2.2 Fab (Fab, V domains shown) VH: EVQLVQSGAEVKKPGASVKVSCKASGYTFTSYYMYWVRQAPGQGLEWIGEINPTSGDTNFNEKFKSRATLTVDTSTSTAYLELSSLRSEDTAVYYCAREGGFAYWGQGTLVTVSS VL: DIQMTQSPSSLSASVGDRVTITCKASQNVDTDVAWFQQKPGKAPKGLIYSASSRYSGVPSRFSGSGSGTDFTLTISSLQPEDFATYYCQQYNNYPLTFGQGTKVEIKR
recorded result: 1.5e+07
--
binder: hu20D12.v2.6 Fab (Fab, V domains shown) VH: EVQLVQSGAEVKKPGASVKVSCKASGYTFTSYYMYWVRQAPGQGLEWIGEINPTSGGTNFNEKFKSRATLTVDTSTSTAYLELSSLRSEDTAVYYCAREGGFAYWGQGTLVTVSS VL: DIQMTQSPSSLSASVGDRVTITCKASQNVDTDVAWFQQKPGKAPKGLISSASSRYSGVPSRFSGSGSGTDFTLTISSLQPEDFATYYCQQYNNYPLTFGQGTKVEIKR
recorded result: 2.1e+06

Let us examine a further case.
For the binder AFD.v14 Fab (Fab, V domains shown, Variant of lampalizumab; also called SIESD.N103S) VH: EVQLVQSGPELKKPGASVKVSCKASGYTFTNYGMNWVRQAPGQGLEWMGWINTYTGETTYAEDFKGRFVFSLDTSVSTAYLQISSLKAEDTAVYYCEREGGVSNWGQGTLVTVSS VL: DIQVTQSPSSLSASVGDRVTITCITSTSIESDMNWYQQKPGKVPKLLISGGNTLRPGVPSRFSGSGSGTDFTLTISSLQPEDVATYYCLQSDSLPYTFGQGTKVEIKR , give its reported kon.
9e+06
